# Tested on: IGROV1
# Test Method Notes: NCI 60 panel growth inhibition (SRB), ovarian cancer
# Type: cell-based, human
# Condition Description: IGROV1, 10 μM
Measured Attribute: GI% (%)
Answer format: numeric, % implied, no suffix.

# Sample Smiles, GI% / %
records = [
    ("Cc1ccc2c(c1)C(=NNC(=O)COc1ccccc1-c1nc3ccccc3s1)C(=O)N2", 35.91),
]

Incoming: State the recorded GI% for this entry: COc1ccc(-c2nc3ccccc3s2)cc1OCC(=O)NN=C1C(=O)Nc2ccc(Cl)cc21
Outgoing: 16.12

* * *

# System: NCI-H522
# Test Method Notes: NCI 60 panel growth inhibition (SRB), non-small cell lung cancer
# Type: cell-based, human
# Condition Description: NCI-H522, 10 μM
Measured Attribute: GI%

Look over these answered cases.
# Compound, GI%
records = [
    ("COc1cccc(-c2nc3ccccc3s2)c1OCC(=O)NN=C1C(=O)Nc2ccc(C)cc21", "– (GI% < 5%)"),
    ("Cc1ccc2c(c1)C(=NNC(=O)COc1ccccc1-c1nc3ccccc3s1)C(=O)N2", "37.21%"),
    ("COc1ccc(-c2nc3ccccc3s2)cc1OCC(=O)NN=C1C(=O)Nc2ccc(C)cc21", "– (GI% < 5%)"),
    ("COc1ccc(-c2nc3ccccc3s2)cc1OCC(=O)NN=C1C(=O)Nc2ccc([N+](=O)[O-])cc21", "42.45%"),
    ("O=C(COc1ccccc1-c1nc2ccccc2s1)NN=C1C(=O)Nc2ccc(Cl)cc21", "11.15%"),
]

Incoming: State the recorded GI% for this entry: O=C(COc1ccccc1-c1nc2ccccc2s1)NN=C1C(=O)Nc2ccc(Br)cc21
Outgoing: 51.70%

Incoming: Another compound to look at: COc1ccc2c(c1)C(=NNC(=O)COc1ccccc1-c1nc3ccccc3s1)C(=O)N2
Outgoing: – (GI% < 5%)

Incoming: Another compound to look at: COc1cccc(-c2nc3ccccc3s2)c1OCC(=O)NN=C1C(=O)Nc2ccc(Cl)cc21
Outgoing: 28.39%

Incoming: Another compound to look at: COc1ccc2c(c1)C(=NNC(=O)COc1cc(-c3nc4ccccc4s3)ccc1OC)C(=O)N2
Outgoing: 5.70%

Incoming: Another compound to look at: COc1cccc(-c2nc3ccccc3s2)c1OCC(=O)NN=C1C(=O)Nc2ccc(Br)cc21
Outgoing: 25.73%

* * *

# Test system: OVCAR-8
# Test Method Notes: NCI 60 panel growth inhibition (SRB), ovarian cancer
# Assay type: cell-based, human
# Condition Description: OVCAR-8, 10 μM
Let's look at some compounds and their measured GI%.
Answer format: numeric, % implied, no suffix.

Look over these answered cases.
# Compound, Measured Attribute, Reading
records = [
    ("CNC(=O)c1nn(C)c2c1C(C)(C)Cc1cnc(Nc3ccc(N4CCN(C)CC4)cc3)nc1-2 [Milciclib, reference compound]", "GI%", 91.10),
    ("COc1cccc(-c2nc3ccccc3s2)c1OCC(=O)NN=C1C(=O)Nc2ccc(Br)cc21", "GI%", 10.38),
]

Incoming: Any idea what GI% came out for COc1ccc(-c2nc3ccccc3s2)cc1OCC(=O)NN=C1C(=O)Nc2ccccc21 on OVCAR-8?
Outgoing: 20.84

Incoming: Another compound to look at: COc1cccc(-c2nc3ccccc3s2)c1OCC(=O)NN=C1C(=O)Nc2ccc(C)cc21
Outgoing: 12.04

Incoming: Another compound to look at: COc1ccc(-c2nc3ccccc3s2)cc1OCC(=O)NN=C1C(=O)Nc2ccc(Br)cc21
Outgoing: 38.56

Incoming: Another compound to look at: COc1cccc(-c2nc3ccccc3s2)c1OCC(=O)NN=C1C(=O)Nc2ccc(Cl)cc21
Outgoing: 12.69
